# TARGET_DESC: Nitric oxide synthase 1 (Rattus norvegicus, UniProt P29476)
# Sequence (P29476 whole entry): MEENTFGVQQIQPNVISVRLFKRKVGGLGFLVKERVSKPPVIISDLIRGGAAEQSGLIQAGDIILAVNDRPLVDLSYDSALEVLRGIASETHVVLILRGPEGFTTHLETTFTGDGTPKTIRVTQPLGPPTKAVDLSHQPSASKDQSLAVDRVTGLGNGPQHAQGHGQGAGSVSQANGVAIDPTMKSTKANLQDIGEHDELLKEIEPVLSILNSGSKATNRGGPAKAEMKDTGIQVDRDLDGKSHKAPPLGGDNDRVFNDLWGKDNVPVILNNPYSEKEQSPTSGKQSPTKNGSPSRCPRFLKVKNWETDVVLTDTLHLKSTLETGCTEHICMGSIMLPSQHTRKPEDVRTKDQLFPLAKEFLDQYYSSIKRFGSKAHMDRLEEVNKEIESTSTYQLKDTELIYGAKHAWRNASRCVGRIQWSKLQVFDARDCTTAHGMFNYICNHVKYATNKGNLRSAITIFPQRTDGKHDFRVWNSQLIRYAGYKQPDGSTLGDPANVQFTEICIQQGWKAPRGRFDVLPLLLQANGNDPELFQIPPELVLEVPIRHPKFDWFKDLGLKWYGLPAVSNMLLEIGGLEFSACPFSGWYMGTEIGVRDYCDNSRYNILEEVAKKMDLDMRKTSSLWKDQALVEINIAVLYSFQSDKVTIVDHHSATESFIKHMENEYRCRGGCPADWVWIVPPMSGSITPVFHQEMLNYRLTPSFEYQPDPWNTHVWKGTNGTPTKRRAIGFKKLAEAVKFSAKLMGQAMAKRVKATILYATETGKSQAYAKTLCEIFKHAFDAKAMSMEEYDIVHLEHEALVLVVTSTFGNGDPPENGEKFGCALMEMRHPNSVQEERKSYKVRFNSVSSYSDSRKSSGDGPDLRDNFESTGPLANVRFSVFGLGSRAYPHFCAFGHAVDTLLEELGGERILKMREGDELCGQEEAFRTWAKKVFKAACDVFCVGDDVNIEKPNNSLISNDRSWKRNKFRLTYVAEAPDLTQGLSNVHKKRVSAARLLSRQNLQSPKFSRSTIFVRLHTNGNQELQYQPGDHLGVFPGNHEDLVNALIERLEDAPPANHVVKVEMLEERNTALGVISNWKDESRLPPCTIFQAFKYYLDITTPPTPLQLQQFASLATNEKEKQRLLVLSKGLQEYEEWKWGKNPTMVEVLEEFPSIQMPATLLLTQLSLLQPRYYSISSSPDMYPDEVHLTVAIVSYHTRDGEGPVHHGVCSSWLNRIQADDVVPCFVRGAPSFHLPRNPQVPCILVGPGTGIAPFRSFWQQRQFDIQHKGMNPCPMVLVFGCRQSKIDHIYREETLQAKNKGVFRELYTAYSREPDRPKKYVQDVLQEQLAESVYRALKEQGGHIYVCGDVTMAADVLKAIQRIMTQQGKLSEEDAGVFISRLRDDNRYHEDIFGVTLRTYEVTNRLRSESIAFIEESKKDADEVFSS
# MEASUREMENT_NOTES: Inhibition of recombinant rat nNOS expressed in Escherichia coli using L-arginine as substrate assessed as formation of nitric oxide measured up to 60 secs by hemoglobin capture assay
pKi: −log10 of the molar value.
MEASURED_PROPERTY: pKi

Below: 4 compounds and their reported pKi.
INSERT INTO measurements (smi, measured_property, measured_result) VALUES
  ('Cc1cc(N)nc(COc2cccc(NCCc3cccc(F)c3)c2)c1', 'pKi', 5.67),
  ('Cc1cc(N)nc(COCc2cccc(CNCCc3cccc(F)c3)n2)c1', 'pKi', 6.57),
  ('Cc1cc(N)nc(CCCCCCc2cc(C)cc(N)n2)c1', 'pKi', 7.48),
  ('Cc1cc(N)nc(COc2ccccc2-c2ccccc2OCc2ccncc2)c1', 'pKi', 5.41);

1 = Cc1cc(N)nc(COc2ccccc2-c2ccccc2OCC2CCNCC2)c1
2 = Cc1cc(N)nc(CCCCCCCc2cc(C)cc(N)n2)c1
Response body: label of entry with the larger pKi; valid values 1 , 2 . Please identify the chosen entry by its label. 2

###

# TARGET_DESC: Nitric oxide synthase, inducible (Mus musculus, UniProt P29477)
# Sequence (P29477 whole entry): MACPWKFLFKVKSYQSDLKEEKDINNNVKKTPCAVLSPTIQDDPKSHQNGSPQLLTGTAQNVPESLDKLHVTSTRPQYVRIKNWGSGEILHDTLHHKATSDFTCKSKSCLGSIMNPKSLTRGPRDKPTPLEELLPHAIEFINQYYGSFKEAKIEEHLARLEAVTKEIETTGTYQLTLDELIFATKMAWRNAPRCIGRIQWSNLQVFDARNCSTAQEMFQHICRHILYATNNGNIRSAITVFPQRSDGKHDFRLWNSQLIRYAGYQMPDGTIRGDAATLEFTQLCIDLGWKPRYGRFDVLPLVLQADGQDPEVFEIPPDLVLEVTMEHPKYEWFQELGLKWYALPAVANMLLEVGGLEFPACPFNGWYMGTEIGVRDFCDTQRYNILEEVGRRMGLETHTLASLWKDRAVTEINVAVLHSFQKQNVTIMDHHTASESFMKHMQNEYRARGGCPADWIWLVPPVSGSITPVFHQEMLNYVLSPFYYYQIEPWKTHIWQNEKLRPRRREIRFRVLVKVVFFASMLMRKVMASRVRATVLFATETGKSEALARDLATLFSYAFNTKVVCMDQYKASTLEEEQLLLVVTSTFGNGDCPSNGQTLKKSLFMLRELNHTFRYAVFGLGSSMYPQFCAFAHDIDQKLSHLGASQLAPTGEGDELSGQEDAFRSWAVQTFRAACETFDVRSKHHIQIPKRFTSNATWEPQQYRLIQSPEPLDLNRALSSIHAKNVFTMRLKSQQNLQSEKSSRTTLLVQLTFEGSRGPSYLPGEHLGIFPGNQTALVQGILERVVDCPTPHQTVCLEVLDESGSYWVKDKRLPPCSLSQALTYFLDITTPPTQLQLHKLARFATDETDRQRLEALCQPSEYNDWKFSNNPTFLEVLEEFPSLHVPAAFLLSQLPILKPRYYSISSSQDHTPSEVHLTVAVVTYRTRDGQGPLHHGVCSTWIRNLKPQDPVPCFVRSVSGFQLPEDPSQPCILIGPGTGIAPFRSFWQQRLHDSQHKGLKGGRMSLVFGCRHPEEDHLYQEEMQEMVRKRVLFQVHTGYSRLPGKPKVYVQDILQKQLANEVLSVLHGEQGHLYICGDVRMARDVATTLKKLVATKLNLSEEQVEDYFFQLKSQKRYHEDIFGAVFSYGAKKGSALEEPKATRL
# MEASUREMENT_NOTES: Inhibition of recombinant mouse macrophage iNOS expressed in Escherichia coli using L-arginine as substrate assessed as formation of nitric oxide measured up to 60 secs by hemoglobin capture assay
pKi: −log10 of the molar value.
MEASURED_PROPERTY: pKi

INSERT INTO measurements (smi, target_desc, measured_result) VALUES
  ('Cc1cc(N)nc(CCCCCCc2cc(C)cc(N)n2)c1', 'Nitric oxide synthase, inducible (Mus musculus, UniProt P29477)', 5.75);

I = Cc1cc(N)nc(COCc2cccc(CNCCc3cccc(F)c3)n2)c1
II = Cc1cc(N)nc(CCCCCc2cc(C)cc(N)n2)c1
III = Cc1cc(N)nc(CCCCCCCc2cc(C)cc(N)n2)c1
Which order do these items take when sorted by rising pKi? List them. Output spec: labels arranged per the requested ranking. I, III, II
(I: 5.07, III: 5.66, II: 6.43)

Data provenance is ChEMBL document CHEMBL2413041.
